Listing: mRNA levels Spi1 of selected compounds
# System: PU.1 dependent gene expression
# experiment: RT-qPCR of mRNA levels in BV2 PU.1-Luciferase cells (validation round 3); note: test concentration or dose not given here
# Assay type: cell-based, mouse
# condition.context: 2-day treatment
metric: mRNA levels Spi1

1) CSc1ccc(C=Cc2nc3ccccc3n2S(=O)(=O)c2ccc(F)c(C)c2)cc1 [Compound 2G10]; 0.790 multiples of 1×
2) CCOC(=O)Cn1c(=O)n(C2CCCCC2)c2nc(-c3cccc(F)c3)nc(C(N)=O)c21 [Compound 2E4]; 1.377 multiples of 1×
3) CC(C)(C)OC(=O)N1CCC(c2c(C(=O)Nc3ccc4c(c3)OCCO4)cnn2-c2ccccc2)CC1 [Compound 2C12]; 0.736 multiples of 1×
4) CC(C)c1ccc(NC(=O)Cn2c(=O)oc3cc(S(=O)(=O)N4CCCC4)ccc32)cc1 [Compound 2A9]; 1.073 multiples of 1×
5) C[C@H]1C[C@H]2[C@@H]3CCC4=CC(=O)C=C[C@]4(C)[C@@]3(F)[C@@H](O)C[C@]2(C)[C@@]1(O)C(=O)CO [Betamethasone, reference compound]; 1.235 multiples of 1×
6) COc1cc(NS(=O)(=O)c2ccc3c(c2)CCN3S(C)(=O)=O)cc(OC)c1 [Compound 2F5]; 0.783 multiples of 1×
7) COc1ccc(NS(=O)(=O)c2ccc3c(c2)CCCN3C(=O)C2CCC2)cc1OC [Compound 2F7]; 0.936 multiples of 1×
8) Cn1nc(CC(=O)Nc2ccc(N3CCN(C(=O)OC(C)(C)C)CC3)cc2)c2ccccc2c1=O [Compound D06]; 1.030 multiples of 1×
9) C[C@@H]1C[C@H]2[C@@H]3CCC4=CC(=O)C=C[C@]4(C)[C@@]3(F)[C@@H](O)C[C@]2(C)[C@@]1(O)C(=O)CO [Dexamethasone, reference compound]; 0.955 multiples of 1×
10) N#CC(=CNc1ccc2c(c1)OCCO2)c1nc2ccccc2[nH]1 [Compound A09]; 0.931 multiples of 1×
11) C[C@]12CCC(=O)C=C1CC[C@H]1[C@@H]3CC[C@](O)(C(=O)CO)[C@@]3(C)C[C@H](O)[C@@]12F [Fludrocortisone, reference compound]; 0.900 multiples of 1×
